B1: CHMP4C (parent)
chain: SSKSRAAPSPQEALVRLRETEEML

- Variants of: B1
- procedure details: protein stability index of a GFP-peptide fusion (GPS, HEK-293T) (PSI 1-6); higher = more stable;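 further: lentivirally expressed fusions sorted by FACS into six bins by GFP to DsRed ratio, PSI derived from sequencing read proportions per bin multiplied by bin number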
- experimental conditions: c terminus: a fixed tail appended
metric name: protein stability index
The response must contain the number and no unit.

Examples with answers:
sequence variant	protein stability index
E12G	2.23
K3D	3.17
A7M	3.21
E12S	2.06
P10T	4.26
V15P	4.34
L14C	2.06
E21Y	2.3

Report measured protein stability index; entry is `L14V`
3

Return value of protein stability index for input `A6H` , no commentary.
1.28

Could you please provide reported protein stability index for `S9R` ? Thanks!
3.19

Output measured protein stability index for this item: `E19K`
3.19

Give the reported value of protein stability index for this record: `K3W`
1.74

Annotate the variant `R16E` with its measured protein stability index.
2.24

Return protein stability index for the following variant: `L14S`
4.33

Give protein stability index for the following variant: `A13K`
4.47

Identify protein stability index associated with the variant `E19N`
2.27

Report measured protein stability index; entry is `L17S`
5.01

Determine from records and report protein stability index for `S9C`
1.54

Identify measured protein stability index associated with `S9T`
1.94

Identify measured protein stability index corresponding to `L24Q`
5.69
